Parameter Lys20, tested on red blood cell (RBC), listed per item.

{"STRUCTURE_SMILES": "CCCCCCCC[P+](CC[P+](CCCCCCCC)(c1ccccc1)c1ccccc1)(CC[P+](CCCCCCCC)(c1ccccc1)c1ccccc1)c1ccccc1", "QUANTITY_UNIT": "µM", "Lys20": 16}
{"STRUCTURE_SMILES": "CCCCCCCCCCC[P+](CC[P+](CCCCCCCCCCC)(c1ccccc1)c1ccccc1)(CC[P+](CCCCCCCCCCC)(c1ccccc1)c1ccccc1)c1ccccc1", "QUANTITY_UNIT": "µM", "Lys20": 1}
{"STRUCTURE_SMILES": "CCCCCCCCCCCCC[P+](CC[P+](CCCCCCCCCCCCC)(c1ccccc1)c1ccccc1)(CC[P+](CCCCCCCCCCCCC)(c1ccccc1)c1ccccc1)c1ccccc1", "QUANTITY_UNIT": "µM", "Lys20": 2}

---

system: Escherichia coli (MC4100); assay: microbe, parasite or virus in culture; type: cell-based
VALUE_TYPE: Minimum Inhibitory Concentration E. coli (µM)

{"STRUCTURE_SMILES": "CCCCCCCCCC[P+](CC[P+](CCCCCCCCCC)(c1ccccc1)c1ccccc1)(CC[P+](CCCCCCCCCC)(c1ccccc1)c1ccccc1)CC[P+](CCCCCCCCCC)(c1ccccc1)c1ccccc1", "SYSTEM_TESTED": "Escherichia coli (MC4100)", "QUALIFIER": "=", "MEASUREMENT": 250}
{"STRUCTURE_SMILES": "CCCCCCCC[P+](CC[P+](CCCCCCCC)(c1ccccc1)c1ccccc1)(CC[P+](CCCCCCCC)(c1ccccc1)c1ccccc1)c1ccccc1", "SYSTEM_TESTED": "Escherichia coli (MC4100)", "QUALIFIER": "=", "MEASUREMENT": 250}
{"STRUCTURE_SMILES": "CCCCCCCCCCCC[P+](c1ccccc1)(c1ccccc1)c1ccccc1", "SYSTEM_TESTED": "Escherichia coli (MC4100)", "QUALIFIER": "=", "MEASUREMENT": 250}
{"STRUCTURE_SMILES": "CCCCCCCCCCCCCCCC[P+](c1ccccc1)(c1ccccc1)c1ccccc1", "SYSTEM_TESTED": "Escherichia coli (MC4100)", "QUALIFIER": "=", "MEASUREMENT": 16}
{"STRUCTURE_SMILES": "CCCCCCCCCCC[P+](c1ccccc1)(c1ccccc1)c1ccccc1", "SYSTEM_TESTED": "Escherichia coli (MC4100)", "QUALIFIER": "=", "MEASUREMENT": 125}
{"STRUCTURE_SMILES": "CCCCCCCC[P+](c1ccccc1)(c1ccccc1)c1ccccc1", "SYSTEM_TESTED": "Escherichia coli (MC4100)", "QUALIFIER": ">", "MEASUREMENT": 250}
{"STRUCTURE_SMILES": "CCCCCCCCCCCC[P+](CC[P+](CCCCCCCCCCCC)(c1ccccc1)c1ccccc1)(CC[P+](CCCCCCCCCCCC)(c1ccccc1)c1ccccc1)c1ccccc1", "SYSTEM_TESTED": "Escherichia coli (MC4100)", "QUALIFIER": "=", "MEASUREMENT": 125}
{"STRUCTURE_SMILES": "CCCCCCCCCCC[P+](CC[P+](CCCCCCCCCCC)(c1ccccc1)c1ccccc1)(CC[P+](CCCCCCCCCCC)(c1ccccc1)c1ccccc1)c1ccccc1", "SYSTEM_TESTED": "Escherichia coli (MC4100)", "QUALIFIER": "=", "MEASUREMENT": 63}
{"STRUCTURE_SMILES": "CCCCCCCCCC[P+](c1ccccc1)(c1ccccc1)c1ccccc1", "SYSTEM_TESTED": "Escherichia coli (MC4100)", "QUALIFIER": "=", "MEASUREMENT": 250}
{"STRUCTURE_SMILES": "CCCCCCCCCCCCCC[P+](c1ccccc1)(c1ccccc1)c1ccccc1", "SYSTEM_TESTED": "Escherichia coli (MC4100)", "QUALIFIER": "=", "MEASUREMENT": 16}
{"STRUCTURE_SMILES": "CCCCCCCCCC[P+](CC[P+](CCCCCCCCCC)(c1ccccc1)c1ccccc1)(CC[P+](CCCCCCCCCC)(c1ccccc1)c1ccccc1)c1ccccc1", "SYSTEM_TESTED": "Escherichia coli (MC4100)", "QUALIFIER": "=", "MEASUREMENT": 32}
{"STRUCTURE_SMILES": "CCCCCCCCCCC[P+](CC[P+](CCCCCCCCCCC)(c1ccccc1)c1ccccc1)(CC[P+](CCCCCCCCCCC)(c1ccccc1)c1ccccc1)CC[P+](CCCCCCCCCCC)(c1ccccc1)c1ccccc1", "SYSTEM_TESTED": "Escherichia coli (MC4100)", "QUALIFIER": "=", "MEASUREMENT": 125}

---

Parameter Lys20, tested on red blood cell (RBC), listed per item.
VALUE_TYPE: Lys20 (µM)

{"COMPOUND": "CCCCCCCCCCCC[P+](c1ccccc1)(c1ccccc1)c1ccccc1", "VALUE_TYPE": "Lys20", "MEASUREMENT": 8}
{"COMPOUND": "CCCCCCCCCCCCCCCC[P+](c1ccccc1)(c1ccccc1)c1ccccc1", "VALUE_TYPE": "Lys20", "MEASUREMENT": 4}
{"COMPOUND": "CCCCCCCCCCC[P+](c1ccccc1)(c1ccccc1)c1ccccc1", "VALUE_TYPE": "Lys20", "MEASUREMENT": 16}
{"COMPOUND": "CCCCCCCCCCCCCCCC[n+]1ccccc1 [CPC, cetylpyridinium chloride, reference compound]", "VALUE_TYPE": "Lys20", "MEASUREMENT": 4}
{"COMPOUND": "CCCCCCCCCCCC[P+](CC[P+](CCCCCCCCCCCC)(c1ccccc1)c1ccccc1)(CC[P+](CCCCCCCCCCCC)(c1ccccc1)c1ccccc1)CC[P+](CCCCCCCCCCCC)(c1ccccc1)c1ccccc1", "VALUE_TYPE": "Lys20", "MEASUREMENT": 4}
{"COMPOUND": "CCCCCCCCCCCCCC[P+](c1ccccc1)(c1ccccc1)c1ccccc1", "VALUE_TYPE": "Lys20", "MEASUREMENT": 4}
{"COMPOUND": "CCCCCCCC[P+](c1ccccc1)(c1ccccc1)c1ccccc1", "VALUE_TYPE": "Lys20", "MEASUREMENT": 63}
{"COMPOUND": "CCCCCCCCCCCCC[P+](c1ccccc1)(c1ccccc1)c1ccccc1", "VALUE_TYPE": "Lys20", "MEASUREMENT": 4}

---

Parameter Lys20, tested on red blood cell (RBC), listed per item.

{"COMPOUND": "CCCCCCCCCCCC[P+](CC[P+](CCCCCCCCCCCC)(c1ccccc1)c1ccccc1)(CC[P+](CCCCCCCCCCCC)(c1ccccc1)c1ccccc1)c1ccccc1", "Lys20, µM": 1}
{"COMPOUND": "CCCCCCCCCC[P+](CC[P+](CCCCCCCCCC)(c1ccccc1)c1ccccc1)(CC[P+](CCCCCCCCCC)(c1ccccc1)c1ccccc1)CC[P+](CCCCCCCCCC)(c1ccccc1)c1ccccc1", "Lys20, µM": 8}
{"COMPOUND": "CCCCCCCCCCC[n+]1ccc(CCCc2cc[n+](CCCCCCCCCCC)cc2)cc1 [2Pyr-11,11, reference compound]", "Lys20, µM": 4}
{"COMPOUND": "CCCCCCCCCC[P+](CC[P+](CCCCCCCCCC)(c1ccccc1)c1ccccc1)(CC[P+](CCCCCCCCCC)(c1ccccc1)c1ccccc1)c1ccccc1", "Lys20, µM": 2}
{"COMPOUND": "CCCCCCCCCCC[P+](CC[P+](CCCCCCCCCCC)(c1ccccc1)c1ccccc1)(CC[P+](CCCCCCCCCCC)(c1ccccc1)c1ccccc1)CC[P+](CCCCCCCCCCC)(c1ccccc1)c1ccccc1", "Lys20, µM": 4}
{"COMPOUND": "CCCCCCCCCC[P+](c1ccccc1)(c1ccccc1)c1ccccc1", "Lys20, µM": 16}
